- Tested on: SK-MEL-2
- methodNotes: Cytotoxicity against cultured human melanoma (MEL-2) cell line.
- Assay type: functional
- particulars: read-out: ED50 (the source's name)
endpointLabel: EC50 (mg/L)
Give just the numeric value; mg/L need not be written.

# molecule, unitsSymbol, measuredNumber
records = [
    ("C=C(C)[C@@H]1CC[C@]2(C(=O)O)CC[C@]3(C)[C@H](CC[C@@H]4[C@@]5(C)CC/C(=N\\OC)C(C)(C)[C@@H]5CC[C@]43C)[C@@H]12", "mg/L", 8.3),
]

Consider the molecule shown here: `C=C(C)[C@@H]1CC[C@]2(C(=O)O)CC[C@]3(C)[C@H](CC[C@@H]4[C@@]5(C)CC[C@H](N)C(C)(C)[C@@H]5CC[C@]43C)[C@@H]12` What is its recorded EC50?
1.3

Consider the molecule shown here: `C=C(C)[C@@H]1CC[C@]2(C=O)CC[C@]3(C)[C@H](CC[C@@H]4[C@@]5(C)CCC(=O)C(C)(C)[C@@H]5CC[C@]43C)[C@@H]12` What is its recorded EC50?
7.4

Consider the molecule shown here: CC(C)[C@@H]1CC[C@]2(C(=O)O)CC[C@]3(C)[C@H](CC[C@@H]4[C@@]5(C)CCC(=O)C(C)(C)[C@@H]5CC[C@]43C)[C@@H]12 [DIHYDROBETULONIC ACID] What is its recorded EC50?
0.7

Consider the molecule shown here: C=C(C)[C@@H]1CC[C@]2(C(=O)OC)CC[C@]3(C)[C@H](CC[C@@H]4[C@@]5(C)CC[C@H](O)C(C)(C)[C@@H]5CC[C@]43C)[C@@H]12 [METHYL BETULINATE] What is its recorded EC50?
8.3

Consider the molecule shown here: `C=C(C)[C@@H]1CC[C@]2(C(=O)O)CC[C@]3(C)[C@H](CC[C@@H]4[C@@]5(C)CCC(=O)C(C)(C)[C@@H]5CC[C@]43C)[C@@H]12` What is its recorded EC50?
0.9

Consider the molecule shown here: `C=C(C)[C@@H]1CC[C@]2(/C=N/O)CC[C@]3(C)[C@H](CC[C@@H]4[C@@]5(C)CC/C(=N\O)C(C)(C)[C@@H]5CC[C@]43C)[C@@H]12` What is its recorded EC50?
2.2

Consider the molecule shown here: `C=C(C)[C@@H]1CC[C@]2(C)CC[C@]3(C)[C@H](CC[C@@H]4[C@@]5(C)CC[C@H](O)C(C)(C)[C@@H]5CC[C@]43C)[C@@H]12` What is its recorded EC50?
17.6

* * *

- System: SK-MEL-2
- methodNotes: Cytotoxicity against cultured human melanoma (MEL-2) cell line.
- Type: functional
- particulars: read-out: ED50 (the source's name)
endpointLabel: EC50 (µg/mL)
Give just the numeric value; µg/mL need not be written.

Completed entries (count: 2):
# compound, measuredNumber
measured = [
    ("CC(C)[C@@H]1CC[C@]2(C(=O)O)CC[C@]3(C)[C@H](CC[C@@H]4[C@@]5(C)CC/C(=N\\O)C(C)(C)[C@@H]5CC[C@]43C)[C@@H]12", 2.2),
    ("CC(C)[C@@H]1CC[C@]2(C(=O)O)CC[C@]3(C)[C@H](CC[C@@H]4[C@@]5(C)CC[C@H](O)C(C)(C)[C@@H]5CC[C@]43C)[C@@H]12 [DIHYDROBETULINIC ACID]", 5.8),
]

Consider the compound shown here: C=C(C)[C@@H]1CC[C@]2(C(=O)O)CC[C@]3(C)[C@H](CC[C@@H]4[C@@]5(C)CC[C@H](O)C(C)(C)[C@@H]5CC[C@]43C)[C@@H]12 [BETULINIC ACID] What is its recorded EC50?
1.2

* * *

- Tested on: SK-MEL-2
- methodNotes: Cytotoxicity against cultured human melanoma (MEL-2) cell line.
- Format: functional
- particulars: read-out: ED50 (the source's name)
Listing of entries alongside the reported EC50.

Completed entries (count: 3):
# compound, targetOrSystem, result
data = [
    ("C=C(C)[C@@H]1CC[C@]2(CO)CC[C@]3(C)[C@H](CC[C@@H]4[C@@]5(C)CC[C@H](O)C(C)(C)[C@@H]5CC[C@]43C)[C@@H]12 [BETULIN]", "SK-MEL-2", "> 20 µg/mL"),
    ("CO/N=C1\\CC[C@]2(C)[C@H]3CC[C@@H]4[C@H]5[C@H](C(C)C)CC[C@]5(C(=O)O)CC[C@@]4(C)[C@]3(C)CC[C@H]2C1(C)C", "SK-MEL-2", "> 20 µg/mL"),
    ("C=C(C)[C@@H]1CC[C@]2(C)CC[C@]3(C)[C@H](CC[C@@H]4[C@@]5(C)CC[C@H](OC(=O)c6ccccc6)C(C)(C)[C@@H]5CC[C@]43C)[C@@H]12", "SK-MEL-2", "> 20 µg/mL"),
]

Now, please, on to the next compound.
Consider the compound shown here: `C=C(C)[C@@H]1CC[C@]2(/C=N/OC)CC[C@]3(C)[C@H](CC[C@@H]4[C@@]5(C)CC/C(=N\OC)C(C)(C)[C@@H]5CC[C@]43C)[C@@H]12` What is its recorded EC50?
> 20 µg/mL
